# TARGET OR SYSTEM: human Y2 receptor (Homo sapiens, UniProt P49146)
# Sequence (P49146 whole entry): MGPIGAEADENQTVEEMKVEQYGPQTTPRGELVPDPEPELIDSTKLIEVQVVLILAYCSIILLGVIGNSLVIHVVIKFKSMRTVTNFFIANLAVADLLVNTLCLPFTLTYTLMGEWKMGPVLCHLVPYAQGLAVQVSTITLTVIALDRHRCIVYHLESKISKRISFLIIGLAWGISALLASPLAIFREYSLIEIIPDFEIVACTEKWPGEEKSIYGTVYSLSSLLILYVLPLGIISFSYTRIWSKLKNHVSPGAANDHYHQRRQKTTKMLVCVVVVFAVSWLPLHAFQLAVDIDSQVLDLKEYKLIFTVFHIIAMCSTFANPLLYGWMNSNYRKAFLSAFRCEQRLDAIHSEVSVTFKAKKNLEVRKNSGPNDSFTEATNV
REPORTED PROPERTY: IC50

Task: If you can, please state the reported IC50 value of N=C(N)NCCC[C@@H](NC(=O)C(c1ccccc1)c1ccccc1)C(=O)NCc1ccc(CNC(N)=O)cc1 [Compound C] .
Result: > 1000 nM

---

# TARGET OR SYSTEM: humanY2 (Homo sapiens, UniProt P49146)
# Construct: endoge- nously expressing Y1 and Y2 receptors; endogenous in cells
# ASSAY SUMMARY: Receptor binding, SMS-KAN cells (Y2)
# PARTICULARS: read-out: Affinity IC50, humanY2/SMS-KAN
pIC50: −log10 of the molar value.
REPORTED PROPERTY: pIC50

Task: Param readout = pIC50; param system = humanY2 (Homo sapiens, UniProt P49146); param query = `N=C(N)NCCC[C@@H](NC(=O)C(c1ccccc1)c1ccccc1)C(=O)NCc1ccc(CNC(N)=O)cc1` ; response: value
Result: < 5.00

---

# TARGET OR SYSTEM: rat Y5 receptor (Rattus norvegicus)
# Sequence (Q63634 1-445): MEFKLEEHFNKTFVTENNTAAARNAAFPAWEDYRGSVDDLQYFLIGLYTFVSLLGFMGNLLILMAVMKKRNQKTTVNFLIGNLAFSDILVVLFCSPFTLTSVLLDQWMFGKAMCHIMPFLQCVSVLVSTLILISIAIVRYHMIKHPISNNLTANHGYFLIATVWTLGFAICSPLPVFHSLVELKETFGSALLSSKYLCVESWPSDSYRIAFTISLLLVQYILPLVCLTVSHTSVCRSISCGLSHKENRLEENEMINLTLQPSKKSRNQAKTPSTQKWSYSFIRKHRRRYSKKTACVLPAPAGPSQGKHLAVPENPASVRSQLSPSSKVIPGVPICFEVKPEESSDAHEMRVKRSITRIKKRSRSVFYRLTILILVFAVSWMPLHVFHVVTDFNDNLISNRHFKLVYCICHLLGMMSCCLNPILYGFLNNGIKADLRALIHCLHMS
REPORTED PROPERTY: pIC50
# reply with the number alone; pIC50 is -log10 of concentration in mol/L

Task: Record N=C(N)NCCC[C@@H](NC(=O)C(c1ccccc1)c1ccccc1)C(=O)NCc1ccc(CNC(N)=O)cc1 [Compound C] : what is its pIC50 with rat Y5 receptor (Rattus norvegicus)?
Result: 4.68

---

Target sequence: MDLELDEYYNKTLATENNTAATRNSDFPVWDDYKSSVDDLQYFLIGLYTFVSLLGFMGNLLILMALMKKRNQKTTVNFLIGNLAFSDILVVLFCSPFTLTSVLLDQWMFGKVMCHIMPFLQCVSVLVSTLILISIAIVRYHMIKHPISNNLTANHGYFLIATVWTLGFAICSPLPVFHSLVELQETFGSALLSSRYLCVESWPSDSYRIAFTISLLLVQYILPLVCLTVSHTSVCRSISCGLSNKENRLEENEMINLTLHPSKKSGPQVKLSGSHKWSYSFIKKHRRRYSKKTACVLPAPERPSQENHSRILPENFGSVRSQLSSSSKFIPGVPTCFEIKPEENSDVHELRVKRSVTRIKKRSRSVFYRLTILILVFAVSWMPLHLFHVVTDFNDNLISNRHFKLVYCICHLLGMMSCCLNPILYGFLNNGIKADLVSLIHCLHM
REPORTED PROPERTY: IC50

Task: Looking for the measured IC50 of `N=C(N)NCCC[C@@H](NC(=O)C(c1ccccc1)c1ccccc1)C(=O)NCc1ccc(CNC(N)=O)cc1` , can you help?
Result: > 10 µM
